Origin of values: patent US10238638B2

# Target Desc: PAR4 (Homo sapiens (Human), UniProt Q96RI0)
# Sequence (Q96RI0 18-385): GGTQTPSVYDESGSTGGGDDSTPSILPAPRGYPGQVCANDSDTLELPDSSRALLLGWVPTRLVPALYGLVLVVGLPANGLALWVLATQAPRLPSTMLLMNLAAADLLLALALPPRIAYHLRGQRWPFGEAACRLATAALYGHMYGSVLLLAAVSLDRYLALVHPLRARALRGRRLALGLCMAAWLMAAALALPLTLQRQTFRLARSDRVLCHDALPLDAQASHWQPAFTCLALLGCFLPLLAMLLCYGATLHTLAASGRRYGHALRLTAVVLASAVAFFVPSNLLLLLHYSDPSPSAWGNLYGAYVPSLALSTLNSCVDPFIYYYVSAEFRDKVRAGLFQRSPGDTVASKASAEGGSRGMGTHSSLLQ
# Assay Overview: FLIPR assay in PAR4-expressing HEK293 cells (calcium mobilization)
# Experimental Parameters: H-Ala-Phe(4-F)-Pro-Gly-Trp-Leu-Val-Lys-Asn-Gly-NH2-induced calcium mobilization, PAR4 antagonist activity
Parameter: IC50 (nM)

1) COc1cc(OCc2csc(-c3ccc(C(=O)N(CCO)C(C)(C)C)cc3)n2)c2sc(-c3cn4nc(C)sc4n3)nc2c1 :: 30000
2) CCc1nn2cc(-c3nc4cc(OC)cc(OCc5csc(-c6ccc(C(=O)N7CCC[C@H](O)C7)cc6)n5)c4s3)nc2s1 :: 3600
3) COc1cc(OCc2csc(-c3ccc(C(=O)OC(C)(C)C)cc3)n2)c2sc(-c3cn4nc(C)sc4n3)nc2c1 :: 2400
4) COc1cc(OCc2csc(-c3ccc(C(=O)N4CC[C@@H](CO)C4)cc3)n2)c2sc(-c3cn4nc(C(C)(F)F)sc4n3)nc2c1 :: 1200
5) COc1cc(OCc2nc(-c3ccc(C(=O)N(C)[C@H]4CCOC4)cc3)sc2C)c2sc(-c3cn4nc(C)sc4n3)nc2c1 :: 1800
6) COc1cc(OCc2csc(-c3ccc(C(=O)N4CCC(C)(CO)CC4)cc3)n2)c2sc(-c3cn4nc(C)sc4n3)nc2c1 :: 930
7) COc1cc(OCc2csc(-c3ccc(C(=O)N(C)[C@H]4CCOC4)cc3)n2)c2sc(-c3cn4nc(C5CC5)sc4n3)nc2c1 :: 2600
